Reported inhibition at 10 µM is given for each of the following compounds.
# Measured on: serotonin (5-HT) reuptake (Rattus norvegicus, UniProt P31652)
# Construct: synaptosomes are freshly isolated from areas of the rat brain; from tissue; host or cells: rat brain synaptosomes (P2 fraction)
# Sequence (P31652 whole entry): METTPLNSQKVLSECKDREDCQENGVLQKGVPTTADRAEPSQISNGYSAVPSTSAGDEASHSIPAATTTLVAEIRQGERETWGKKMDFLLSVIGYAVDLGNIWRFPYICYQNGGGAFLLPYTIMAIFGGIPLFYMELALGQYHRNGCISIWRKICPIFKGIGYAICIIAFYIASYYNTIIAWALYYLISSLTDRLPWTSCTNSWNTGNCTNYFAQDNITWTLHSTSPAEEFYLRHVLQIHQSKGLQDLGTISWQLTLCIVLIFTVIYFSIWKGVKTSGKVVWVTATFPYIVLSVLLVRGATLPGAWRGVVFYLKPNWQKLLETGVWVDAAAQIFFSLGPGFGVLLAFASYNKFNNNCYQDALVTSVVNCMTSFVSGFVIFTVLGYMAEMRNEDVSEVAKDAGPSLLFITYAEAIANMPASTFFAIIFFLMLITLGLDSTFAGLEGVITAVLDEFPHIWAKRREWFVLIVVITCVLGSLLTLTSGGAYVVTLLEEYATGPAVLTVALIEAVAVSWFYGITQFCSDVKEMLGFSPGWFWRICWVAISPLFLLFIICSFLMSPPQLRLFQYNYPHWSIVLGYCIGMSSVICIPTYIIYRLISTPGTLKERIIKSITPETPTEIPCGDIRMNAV
# Assay overview: Inhibition of serotonin (5HT) reuptake in synaptosomes from rat brain
# Format: biochemical
# Protocol conditions: test concentration of 10 μM; read-out: 5-HT (inhibition of reuptake of serotonin, % inhibition)
Recorded metric: inhibition at 10 µM (%)

Compound	Units text	Value observed
CN(C)C(c1ccccc1)C1CCC(CNC(=O)COCCN(C)S(=O)(=O)c2c(Cl)cc(Cl)cc2Cl)CC1 (stereo not shown) [Example 14]	%	99
COc1cc(C)c(S(=O)(=O)N(C)CCOCC(=O)NCC2CCC(C(c3cccs3)N(C)C)CC2)c(C)c1C (stereo not shown) [Example 35]	%	84
CN(C)C(c1ccccc1)C1CCC(NC(=O)COCCN(C)S(=O)(=O)c2c(Cl)cccc2Cl)CC1 (stereo not shown) [Example 135]	%	83
COc1cc(C)c(S(=O)(=O)N2CCN(CCOCC(=O)NCC3CCC(C(c4ccccc4)N(C)C)CC3)CC2)c(C)c1C (stereo not shown) [Example 61]	%	95
COc1cc(C)c(S(=O)(=O)N2CCC(OCC(=O)NCC3CCC(C(c4ccccc4)N(C)C)CC3)CC2)c(C)c1C (stereo not shown) [Example 143]	%	93
COc1cc(C)c(S(=O)(=O)N2CCCC(OCC(=O)NC3CCC(C(c4cccs4)N(C)C)CC3)C2)c(C)c1C (stereo not shown) [Example 144]	%	87
COc1cc(C)c(S(=O)(=O)N(C)CCOCC(=O)NCC2CCC(C(c3ccccc3)N(C)C)CC2)c(C)c1C (stereo not shown) [Example 40]	%	84
